Item-by-item account of log10 of IC50
# SUBJECT_OF_TEST: purified PfENR (Plasmodium falciparum, UniProt Q9BH77)
# Sequence (Q9BH77 22-432): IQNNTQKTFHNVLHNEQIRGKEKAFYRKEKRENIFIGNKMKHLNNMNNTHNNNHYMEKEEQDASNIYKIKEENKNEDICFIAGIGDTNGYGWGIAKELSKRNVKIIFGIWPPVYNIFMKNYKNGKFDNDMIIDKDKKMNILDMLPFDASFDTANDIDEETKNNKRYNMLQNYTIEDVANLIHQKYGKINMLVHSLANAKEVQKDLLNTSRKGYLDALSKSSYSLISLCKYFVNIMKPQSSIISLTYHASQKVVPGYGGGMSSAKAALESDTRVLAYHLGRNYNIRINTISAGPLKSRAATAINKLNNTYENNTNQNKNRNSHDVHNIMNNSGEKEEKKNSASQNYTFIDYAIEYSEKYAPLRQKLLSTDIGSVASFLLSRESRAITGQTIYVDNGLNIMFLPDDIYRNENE
# TEST: PfENR inhibition, standard enzyme assay
# Assay type: biochemical
# APPLIED_CONDITIONS: read-out: Inhibition of PfENR (IC50 μM)
The figures below represent log10 of IC50, where IC50 is stated in µM.

> print(dat)
                                    smi                           subject.of.test  measured
1  O=C(NCc1cccc2ccccc12)c1sc2ccccc2c1Br  purified PfENR (Plasmodium falciparum, UniProt Q9BH77)      1.72

Given the molecule "C=CCN(Cc1ccc(C(F)(F)F)cc1)C(=O)c1sc2ccccc2c1Br" , what is its reported log10 of IC50?
1.72

Entry to check: "O=C(NCc1ccc(F)cc1)c1sc2ccccc2c1Br"
-0.94

Entry to check: "O=C(O)c1sc2ccccc2c1Br"
0.23

Value source: patent US20120016014A1
